- test.system: T1, human CD86-murine Ig fusion protein (human)
- T1 construct: Bought (Ancell #509-820); also called hCD86-mIg
- T1 chain: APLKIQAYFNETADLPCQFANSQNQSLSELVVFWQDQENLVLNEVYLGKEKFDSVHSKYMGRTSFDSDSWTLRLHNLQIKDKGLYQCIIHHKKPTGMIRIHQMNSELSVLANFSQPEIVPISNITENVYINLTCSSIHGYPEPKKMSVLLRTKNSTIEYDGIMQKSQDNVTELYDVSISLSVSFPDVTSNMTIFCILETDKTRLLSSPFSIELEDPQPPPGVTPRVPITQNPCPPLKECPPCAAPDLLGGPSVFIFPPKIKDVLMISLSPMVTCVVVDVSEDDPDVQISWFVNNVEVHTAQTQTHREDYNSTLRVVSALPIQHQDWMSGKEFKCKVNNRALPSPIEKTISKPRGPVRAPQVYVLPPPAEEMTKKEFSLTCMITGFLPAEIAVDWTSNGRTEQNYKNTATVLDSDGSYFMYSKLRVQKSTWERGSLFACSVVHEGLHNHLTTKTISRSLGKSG
- assay.text: SPR Biacore, hCD86-mIg captured
pKd: −log10 of the molar value.
observation.type: pKd

1) D3-56-IgG2 (Fc fusion) MHVAQPAVVLASSRGIASFVCEYASPGKANEVRVTVLRQADSQVTEVCAMTYMKENELTFLDDPSCTGTFSGNQVNLTIQGLRAMDTGLYICKVELMYPPPYYLGIGNGTQIYVIDPEPCPDSDERKCCVECPPCPAPPVAGPSVFLFPPKPKDTLMISRTPEVTCVVVDVSHEDPEVQFNWYVDGVEVHNAKTKPREEQFNSTFRVVSVLTVVHQDWLNGKEYKCKVSNKGLPAPIEKTISKTKGQPREPQVYTLPPSREEMTKNQVSLTCLVKGFYPSDIAVEWESNGQPENNYKTTPPMLDSDGSFFLYSKLTVDKSRWQQGNVFSCSVMHEALHNHYTQKSLSLSPG = > 9.88
2) D26-IgG2 (Fc fusion) MHVAQPAVVLASSRGIASFVCEYEAPHKANEVRVTVLREAGSQVTEVCAMTYMVEDELTFLDDPSCTGTFSGNQVNLTIQGLRAADTGLYICKVELMYPPPYYLGLGNGTQIYVIDPEPCPDSDERKCCVECPPCPAPPVAGPSVFLFPPKPKDTLMISRTPEVTCVVVDVSHEDPEVQFNWYVDGVEVHNAKTKPREEQFNSTFRVVSVLTVVHQDWLNGKEYKCKVSNKGLPAPIEKTISKTKGQPREPQVYTLPPSREEMTKNQVSLTCLVKGFYPSDIAVEWESNGQPENNYKTTPPMLDSDGSFFLYSKLTVDKSRWQQGNVFSCSVMHEALHNHYTQKSLSLSPG = > 9.88
3) D3-7-IgG2 (Fc fusion, also called D3-07) MHVAQPAVVLASSRGIASFVCEYESPGKANEIRVTVLRQAGSQVTEVCAMTYMKGNELTFLDDPSCTGTFSGNQVNLTIQGLRAADTGLYICKVELMYPPPYYLGFGNGTQIYVIDPEPCPDSDERKCCVECPPCPAPPVAGPSVFLFPPKPKDTLMISRTPEVTCVVVDVSHEDPEVQFNWYVDGVEVHNAKTKPREEQFNSTFRVVSVLTVVHQDWLNGKEYKCKVSNKGLPAPIEKTISKTKGQPREPQVYTLPPSREEMTKNQVSLTCLVKGFYPSDIAVEWESNGQPENNYKTTPPMLDSDGSFFLYSKLTVDKSRWQQGNVFSCSVMHEALHNHYTQKSLSLSPG = > 9.88
4) D3-30-IgG2 (Fc fusion) MHVAQPAVVLASSRGIASFVCEYESPGKANEIRVTVLRQADSQVTEVCAMTYMKGDELTFLDDPICTGTFSGNQVNLTIQGLRAMDTGLYICKVELMYPPPYYLGIGNGTQIYVIDPEPCPDSDERKCCVECPPCPAPPVAGPSVFLFPPKPKDTLMISRTPEVTCVVVDVSHEDPEVQFNWYVDGVEVHNAKTKPREEQFNSTFRVVSVLTVVHQDWLNGKEYKCKVSNKGLPAPIEKTISKTKGQPREPQVYTLPPSREEMTKNQVSLTCLVKGFYPSDIAVEWESNGQPENNYKTTPPMLDSDGSFFLYSKLTVDKSRWQQGNVFSCSVMHEALHNHYTQKSLSLSPG = 9.58 to 9.88

All figures here come from patent US20110177071A1.
